- test.target: Gamma-aminobutyric acid receptor subunit gamma-1 (Rattus norvegicus)
- Sequence (P23574 whole entry): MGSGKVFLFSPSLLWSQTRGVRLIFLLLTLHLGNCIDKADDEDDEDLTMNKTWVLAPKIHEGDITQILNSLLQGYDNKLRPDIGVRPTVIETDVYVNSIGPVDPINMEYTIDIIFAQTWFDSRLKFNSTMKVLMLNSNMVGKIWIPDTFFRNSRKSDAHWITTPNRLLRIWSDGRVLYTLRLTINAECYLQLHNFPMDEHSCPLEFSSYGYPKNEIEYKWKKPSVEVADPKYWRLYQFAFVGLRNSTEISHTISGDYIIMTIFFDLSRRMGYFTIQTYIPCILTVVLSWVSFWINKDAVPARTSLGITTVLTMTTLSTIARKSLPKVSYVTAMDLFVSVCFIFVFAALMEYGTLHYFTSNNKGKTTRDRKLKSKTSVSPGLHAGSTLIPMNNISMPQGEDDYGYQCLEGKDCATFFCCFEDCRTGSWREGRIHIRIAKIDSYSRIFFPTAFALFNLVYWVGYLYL
- protocol: […] of [3H]GABA at Gamma-aminobutyric acid receptor in rat brain membranes at 0.01 uM
value.type: IC50 (µM)
Answer in µM, number only, no unit symbol.

Entry under review: `CN1CCc2cc3c(cc2[C@H]1[C@@H]1OC(=O)c2c1ccc1c2OCO1)OCO3` . Reported IC50?
3.8

---

- test.target: GABA-A receptor; anion channel
- protocol: Displacement of [3H]gamma-aminobutyric acid from sodium-independent Gamma-aminobutyric acid (GABA-A) receptor synaptic membrane binding sites from rat brain tissue
- condition.notes: read-out: IC50
value.type: pIC50
In simple prose, pIC50 is minus the logarithm base ten of a concentration in moles per litre.

Give pIC50 (GABA-A receptor; anion channel) of the following molecule: `NCc1cc(=O)[nH]o1`
8.49
